Catalogue of compounds with associated pIC50
studyTarget: human DGKζ (Homo sapiens, UniProt Q13574)
Construct: TVMV protease cleavage site (C); Hexa-His (C); made in house; host or cells: Sf9 insect cells (baculovirus, Bac-to-Bac)
Sequence (Q13574 with tags, fused parts or gaps isoform Q13574-4): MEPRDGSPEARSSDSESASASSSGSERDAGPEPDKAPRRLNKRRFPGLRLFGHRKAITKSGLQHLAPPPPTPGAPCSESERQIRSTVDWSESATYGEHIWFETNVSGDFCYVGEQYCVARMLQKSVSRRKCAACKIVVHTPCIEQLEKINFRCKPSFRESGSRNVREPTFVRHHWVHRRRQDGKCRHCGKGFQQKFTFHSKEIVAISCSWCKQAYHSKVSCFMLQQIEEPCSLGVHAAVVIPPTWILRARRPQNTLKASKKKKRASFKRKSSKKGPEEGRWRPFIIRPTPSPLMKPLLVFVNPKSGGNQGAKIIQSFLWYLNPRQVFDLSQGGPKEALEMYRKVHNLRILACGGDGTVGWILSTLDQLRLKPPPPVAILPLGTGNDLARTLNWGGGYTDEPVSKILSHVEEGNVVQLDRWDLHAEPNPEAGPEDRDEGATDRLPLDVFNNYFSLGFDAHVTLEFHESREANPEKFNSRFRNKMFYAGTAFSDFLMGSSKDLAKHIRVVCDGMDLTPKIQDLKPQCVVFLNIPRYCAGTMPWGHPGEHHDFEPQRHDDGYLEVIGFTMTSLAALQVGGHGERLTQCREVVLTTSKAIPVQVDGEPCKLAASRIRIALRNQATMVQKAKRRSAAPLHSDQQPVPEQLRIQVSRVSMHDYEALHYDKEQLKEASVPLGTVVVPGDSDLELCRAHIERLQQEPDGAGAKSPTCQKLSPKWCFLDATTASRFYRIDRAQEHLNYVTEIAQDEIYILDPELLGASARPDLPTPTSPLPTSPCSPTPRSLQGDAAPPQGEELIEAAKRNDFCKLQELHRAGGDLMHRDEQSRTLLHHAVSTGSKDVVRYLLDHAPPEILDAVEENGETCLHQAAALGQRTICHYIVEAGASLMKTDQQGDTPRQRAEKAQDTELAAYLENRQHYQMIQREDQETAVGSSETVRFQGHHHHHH
procedureText: DGKζ LIPGLO assay (extruded liposome substrate), in vitro DGK inhibition
Type: biochemical
runParameters: liposome (LIPGLO) assay; read-out: DGKz LIPGLO IC50
pIC50 here is simply -log10 of the concentration when that concentration is written in mol/L.

CC(c1ccc(OC(F)(F)F)cc1)N1C[C@H](C)N(c2cc(=O)n(C)c3ccc(C#N)nc23)C[C@H]1CO (single isomer, unassigned) [Example 1386] ... 5.66
C[C@@H]1CN(c2cc(=O)n(C)c3ccc(C#N)nc23)[C@@H](C)CN1C(c1ccc(F)cc1)c1cc(F)ccn1 (single isomer, unassigned) [Example 474] ... 5.92
CC[C@@H]1CN(c2cc(=O)n(C)c3ccc(C#N)nc23)[C@@H](C)CN1C(c1ccc(F)cc1)c1nc(C2CC2)no1 (stereo partly drawn) [Example 1116] ... 7.89
C[C@@H]1CN(c2cc(=O)n(C)c3ccc(C#N)nc23)[C@@H](C)CN1C(c1ccc(Cl)cc1)c1ccc(F)cn1 (single isomer, unassigned) [Example 192] ... 5.82

Find the recorded pIC50 belonging to CC(c1ccc(C#N)c(OCCN(C)C)c1)N1C[C@H](C)N(c2cc(=O)n(C)c3ccc(C#N)nc23)C[C@H]1C (single isomer, unassigned) [Example 1323] and report it.
5.15

Would you mind telling me what pIC50 value was observed for CCc1cc(F)ccc1C(c1ccc(Cl)cc1)N1C[C@H](C)N(c2cc(=O)n(C)c3ccc(C#N)nc23)C[C@H]1C (single isomer, unassigned) [Example 226] ?
5.85

Data credit: patent US10669272B2
